Would you kindly list Ki for each of these compounds?
target: dopamine D2 receptor (Rattus norvegicus, UniProt P61169); construct: A membrane fraction obtained from rat corpus striatum was prepared as a membrane fraction of a dopamine D2 receptor; experiment: biochemical
Sequence (P61169 whole entry): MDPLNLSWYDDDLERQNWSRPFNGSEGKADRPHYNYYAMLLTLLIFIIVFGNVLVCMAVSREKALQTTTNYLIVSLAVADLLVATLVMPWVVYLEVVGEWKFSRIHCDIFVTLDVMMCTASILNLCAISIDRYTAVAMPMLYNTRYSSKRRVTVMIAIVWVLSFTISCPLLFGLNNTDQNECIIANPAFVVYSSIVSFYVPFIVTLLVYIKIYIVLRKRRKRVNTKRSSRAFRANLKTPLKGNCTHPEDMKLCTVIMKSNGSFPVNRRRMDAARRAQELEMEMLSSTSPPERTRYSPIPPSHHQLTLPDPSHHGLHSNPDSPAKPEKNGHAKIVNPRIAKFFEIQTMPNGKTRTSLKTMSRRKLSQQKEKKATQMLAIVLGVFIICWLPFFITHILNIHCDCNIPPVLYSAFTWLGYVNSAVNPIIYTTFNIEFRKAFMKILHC
I only need the number, in nM, no unit after it.

// query Param item = O=C1NCN(c2ccccc2)C12CCN(Cc1ccc(Br)cc1)CC2 ; retrieve measured Ki.
// result 5.7

// query Sample O=C1OC2(CCN(Cc3ccccc3)CC2)c2c1ccc1ccccc21 — what was its Ki?
// result 177

// query Requested field: Ki. Item: COc1ccc(CN2CCC3(CC2)C(=O)NCN3c2ccccc2)cc1
// result 20

// query Could you tell me which Ki is on file for O=C1OC2(CCN(Cc3ccc(Cl)nc3)CC2)c2c1ccc1ccccc21 ?
// result 532

// query May I ask what Ki has been recorded for Cc1ccc(CN2CCC3(CC2)C(=O)NCN3c2ccccc2)cc1 ?
// result 52

// query Find the recorded Ki belonging to O=C1NCN(c2ccccc2)C12CCN(Cc1cccnc1)CC2 and report it.
// result 457

// query Endpoint output: Ki of N=C1OC2(CCN(Cc3ccc(Cl)nc3)CC2)c2c1ccc1ccccc21 . Value?
// result 230

// query Entry Cc1ccc(CN2CCC3(CC2)C(=O)NCN3c2ccccc2)cn1 : reported Ki = ?
// result 17

// query # lookup: Ki of O=C1NCN(c2ccccc2)C12CCN(Cc1ccc(Cl)nc1)CC2
// result 3.6

// query Looking for the measured Ki of O=C1OC2(CCN(Cc3ccc(Cl)nc3)CC2)c2cc3ccccc3cc21 , can you help?
// result 1590
